Organism: Rattus norvegicus
Assay: Selectivity index, ratio of Ki for Wistar rat hippocampus 5HT1A receptor to Ki for Wistar rat cortex 5HT2A receptor
Assay type: tissue-based
reported_property: Ratio Ki

Fc1ccc(-n2cc(CN3CCN(c4ccccc4)CC3)cn2)cc1; 0.07
Clc1ccc(-n2cc(CN3CCN(c4ccccc4)CC3)nn2)cc1; 0.11
Fc1ccc(-n2cc(CN3CCN(c4ccccc4)CC3)nn2)cc1; 0.16
Clc1ccc(N2CCN(Cc3cn(-c4ccccc4)nn3)CC2)cc1; 2.07
c1ccc(N2CCN(Cc3cn(-c4ccccc4)nn3)CC2)cc1; 0.08

[P] c1ccc(N2CCN(Cc3cnn(-c4ccccc4)c3)CC2)cc1
[Q] Fc1ccc(N2CCN(Cc3cnn(-c4ccc(F)cc4)c3)CC2)cc1
[R] Fc1ccc(N2CCN(Cc3cn(-c4ccc(F)cc4)nn3)CC2)cc1
[S] Fc1ccc(N2CCN(Cc3cnn(-c4ccccc4)c3)CC2)cc1
Put the compounds in ascending order of Ratio Ki. Output the labels ranked as instructed.
P, S, Q, R
(P: 0.03, S: 0.12, Q: 0.44, R: 0.67)

[A] Clc1ccc(-n2cc(CN3CCN(c4ccccc4)CC3)cn2)cc1
[B] Fc1ccc(N2CCN(Cc3cn(-c4ccccc4)nn3)CC2)cc1
Looking at recorded values for Ratio Ki, does A or B come in lower? Write down the label of the entry you select.
A
(A: 0.04, B: 0.45)
